# credit: ChEMBL document CHEMBL2016504

- Assay Info: Inhibition of desert banana tyrosinase using p-cresol as substrate
- Design: species or system Musa acuminata
pIC50: −log10 of the molar value.
Outcome Measure: pIC50

O[C@@H](CS)[C@@H](O)CS (relative stereo) | 4.20
N[C@@H](CS)C(=O)O | 3.49

P. O=C1O[C@H]([C@@H](O)CO)C(O)=C1O
Q. O=S(O)S(=O)(=O)O [SODIUM METABISULFITE]
INPUT: Which record would sort first by descending pIC50, P or Q ? Which one? Tell me its label.
OUTPUT: Q
(Q: 4.19, P: 3.36)

----------
- System: Musa x paradisiaca
- Assay Info: Competitive inhibition of banana tyrosinase using catechol as substrate by Lineweaver-Burk plot analysis
Outcome Measure: Kic (µM)

Answered examples (6):
O=C(Nc1ccc2c(c1)S(=O)(=O)NC2=O)Nc1ccccc1F | 35.1
O=C1NS(=O)(=O)c2cc(NC(=S)Nc3ccc([N+](=O)[O-])cc3)ccc21 | 19.5
O=C1NS(=O)(=O)c2cc(NC(=S)Nc3ccccc3)ccc21 | 10.7
O=C(Nc1ccc(Cl)c(Cl)c1)Nc1ccc2c(c1)S(=O)(=O)NC2=O | 14.9
O=C1NS(=O)(=O)c2cc(NC(=S)Nc3ccc(Cl)cc3Cl)ccc21 | 10.1
O=C(Nc1cccc(F)c1)Nc1ccc2c(c1)S(=O)(=O)NC2=O | 12.1

1. O=C1NS(=O)(=O)c2cc(NC(=S)Nc3cc(Cl)cc(Cl)c3)ccc21
2. O=C1NS(=O)(=O)c2cc(NC(=S)Nc3ccccc3F)ccc21
INPUT: Lab log: flag the item ( 1 or 2 ) with the smaller Kic figure. Field: selected label. Fill in the label of the entry you choose.
OUTPUT: 2
(2: 4.23 µM, 1: 13.7 µM)

P. O=C(Nc1ccc(F)cc1)Nc1ccc2c(c1)S(=O)(=O)NC2=O
Q. O=C1NS(=O)(=O)c2cc(NC(=S)Nc3cccc(Cl)c3)ccc21
INPUT: // max by Kic over [ P , Q ] Please reply using the label of the selected record.
OUTPUT: Q

----------
- Test system: Musa x paradisiaca
- Assay Info: Competitive inhibition of banana tyrosinase using catechol as substrate by Lineweaver-Burk plot analysis
Outcome Measure: Kic (µM)

Cc1ccc(NC(=O)Nc2ccc3c(c2)S(=O)(=O)NC3=O)cc1 | 16.2

P. COc1cccc(NC(=O)Nc2ccc3c(c2)S(=O)(=O)NC3=O)c1
Q. O=C1NS(=O)(=O)c2cc(NC(=S)Nc3cccc(I)c3)ccc21
INPUT: Of the two listed items, P and Q , which carries the larger Kic figure? Write down the label attached to your selection.
OUTPUT: P
(P: 14.1 µM, Q: 3.95 µM)

1. O=C1NS(=O)(=O)c2cc(NC(=S)Nc3cccc(F)c3)ccc21
2. O=C(Nc1cccc(Cl)c1)Nc1ccc2c(c1)S(=O)(=O)NC2=O
3. O=C(Nc1ccc([N+](=O)[O-])cc1)Nc1ccc2c(c1)S(=O)(=O)NC2=O
4. O=C(Nc1ccc(Cl)cc1)Nc1ccc2c(c1)S(=O)(=O)NC2=O
INPUT: # desc sort on Kic across 4 molecules Answer format: the labels, ordered as requested.
OUTPUT: 4, 3, 1, 2
(4: 40.2 µM, 3: 22 µM, 1: 11.1 µM, 2: 5.85 µM)

1. COc1ccc(NC(=O)Nc2ccc3c(c2)S(=O)(=O)NC3=O)cc1
2. Cc1ccc(NC(=S)Nc2ccc3c(c2)S(=O)(=O)NC3=O)cc1
INPUT: Select one: 1 or 2 . Criterion: greater recorded Kic. The response must carry the label of the picked entry.
OUTPUT: 1
(1: 16.6 µM, 2: 9.96 µM)

----------
- Test system: Musa x paradisiaca
- Assay Info: Competitive inhibition of banana tyrosinase using catechol as substrate by Lineweaver-Burk plot analysis
Outcome Measure: Kic (µM)

O=C(Nc1ccccc1)Nc1ccc2c(c1)S(=O)(=O)NC2=O | 13.4
O=C1NS(=O)(=O)c2cc(NC(=S)Nc3ccc(F)cc3)ccc21 | 14.8
O=C(Nc1cccc([N+](=O)[O-])c1)Nc1ccc2c(c1)S(=O)(=O)NC2=O | 16.9
